target: Dickkopf-related protein 1 (Homo sapiens); experiment: DKK1 binders on small-molecule microarrays, primary screen, biochemical, small-molecule microarray, 635 nm fluorescence scan (AID 1106); details: DKK1 binding, higher = more signal;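 note: score merges emission near 667 nm with signal to noise over three replicate slides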
Collected composite z-score values appear next to each entry.
Lab note: jot down the number only; don't add units.

[[record]]
molecule = "C=CCOC(=O)[C@@H]1[C@H]2C(=O)O[C@H](c3ccccc3)[C@H](c3ccccc3)N2[C@H](c2ccc(OCCOC(=O)[C@@H]3C[C@@H]4C(=O)N[C@@H](CC(C)C)C(=O)N4[C@@H]3c3ccc(O)cc3)cc2)[C@@]12C(=O)Nc1ccc(I)cc12"
measurement_name = "composite z-score"
observed_measurement = 1.14

[[record]]
molecule = "CO[C@H]1O[C@H](CO)[C@@H](OC(=O)Nc2cccc(F)c2)[C@H](OC(=O)Nc2ccc3c(c2)OCO3)[C@@H]1OC(=O)Nc1ccc2c(c1)OCO2"
measurement_name = "composite z-score"
observed_measurement = 0.229

[[record]]
molecule = "COc1ccc(C(=O)Nc2cccc(CN3C(=O)[C@]4(O[C@H](CC(=O)N(CCO)Cc5ccccc5)[C@@H]([Si](C)(C)c5ccc(OC)cc5)[C@@H]4C)c4ccccc43)c2)cc1"
measurement_name = "composite z-score"
observed_measurement = 0.649

[[record]]
molecule = "COc1ccc([Si](C)(C)[C@H]2[C@H](CC(=O)N3CCC[C@H]3CO)O[C@@]3(C(=O)N(Cc4cccc(N5CCCCC5=O)c4)c4ccccc43)[C@@H]2C)cc1"
measurement_name = "composite z-score"
observed_measurement = 0.823

[[record]]
molecule = "Cc1cccc([C@H]2C[C@H]3C(Br)=C[C@@]2(CO)C(=O)[C@]32CO2)c1"
measurement_name = "composite z-score"
observed_measurement = -0.166

[[record]]
molecule = "CCCNC(=O)[C@@]1(Sc2ccc(C)cc2)CC(=O)N(Cc2cc(C(F)(F)F)cc(C(F)(F)F)c2)[C@@H]1c1ccc(CO)cc1"
measurement_name = "composite z-score"
observed_measurement = -1.2

[[record]]
molecule = "C=CCOC(=O)[C@H]1[C@@H]2C(=O)O[C@@H](c3ccccc3)[C@@H](c3ccccc3)N2[C@@H](c2ccc(OCCOC(=O)[C@H]3C[C@H]4C(=O)NCC(=O)N4[C@H]3c3cccc(OCCO)c3)cc2)[C@]12C(=O)Nc1ccc(I)cc12"
measurement_name = "composite z-score"
observed_measurement = 0.614

[[record]]
molecule = "COc1cccc(C)c1NC(=O)O[C@H]1[C@H](OC(=O)Nc2ccccc2-c2ccccc2)[C@@H](OC(=O)Nc2ccccc2-c2ccccc2)[C@@H](OC)O[C@@H]1CO"
measurement_name = "composite z-score"
observed_measurement = 0.244


Recorded composite z-score of CN(C)CCCC[C@@H]1NC(=O)[C@H]2C[C@@H](C(=O)NCCCCCCNC(=O)CS)[C@@H](c3cccc(OCCO)c3)N2C1=O , please.
0.156

Same thing, different molecule: [N-]=[N+]=Nc1ccccc1C[C@]1(C(N)=O)COC(c2ccc(OCCCO)cc2)=N1
-1.18

Same thing, different molecule: C=C(C)C1CN([C@H](CO)c2ccccc2)C(=O)/C1=C\c1ccccc1 (some centres not stated)
0.48

Same thing, different molecule: COC(=O)C(CC#Cc1ccc2c(c1)[C@]1(C(=O)N2)[C@H](C(N)=O)[C@H]2C(=O)O[C@H](c3ccccc3)[C@H](c3ccccc3)N2[C@@H]1c1ccccc1OCCO)C(=O)OC
-0.151
